- Assay target: Polyunsaturated fatty acid lipoxygenase ALOX12 (Homo sapiens)
- Sequence (P18054 whole entry): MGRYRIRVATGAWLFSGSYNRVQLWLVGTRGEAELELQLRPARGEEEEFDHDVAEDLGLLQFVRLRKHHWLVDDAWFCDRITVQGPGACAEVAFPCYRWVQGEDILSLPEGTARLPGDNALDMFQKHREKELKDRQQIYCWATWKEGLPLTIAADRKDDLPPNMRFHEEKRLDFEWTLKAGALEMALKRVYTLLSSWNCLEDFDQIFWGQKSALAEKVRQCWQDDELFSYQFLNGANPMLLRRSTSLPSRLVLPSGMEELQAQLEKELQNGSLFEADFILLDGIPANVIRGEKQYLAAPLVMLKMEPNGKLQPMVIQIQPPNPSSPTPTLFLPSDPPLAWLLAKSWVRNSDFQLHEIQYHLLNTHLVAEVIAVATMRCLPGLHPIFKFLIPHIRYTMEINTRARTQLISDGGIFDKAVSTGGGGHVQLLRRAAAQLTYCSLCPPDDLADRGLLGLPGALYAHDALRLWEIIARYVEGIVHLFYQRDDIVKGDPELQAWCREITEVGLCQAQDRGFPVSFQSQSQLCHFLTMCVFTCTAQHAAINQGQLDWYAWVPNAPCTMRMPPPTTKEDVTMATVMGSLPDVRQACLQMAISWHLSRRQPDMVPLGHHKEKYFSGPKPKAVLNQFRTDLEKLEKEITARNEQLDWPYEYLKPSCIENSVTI
Hi there, I'd appreciate the recorded log10 of IC50 for every entry that follows.
All values: log10 IC50 [µM].

So what's the measured log10 of IC50 for this one? Oc1c(Br)c(Br)c(Br)c(Br)c1Oc1ccc(Br)cc1Br -0.15

So what's the measured log10 of IC50 for this one? CC(C)(c1ccc(O)c(Br)c1)c1cc(Br)c(O)c(Br)c1 0.85

So what's the measured log10 of IC50 for this one? Oc1cc(Br)cc2c1Oc1cc(Br)cc(Br)c1O2 [SPONGIADIOXIN C] 1.48

So what's the measured log10 of IC50 for this one? Oc1c(Br)cc(Br)c(Br)c1Oc1ccc(Br)cc1Br 0.78

So what's the measured log10 of IC50 for this one? Oc1ccc(Br)cc1Oc1c(O)ccc(Br)c1Br 1.67

So what's the measured log10 of IC50 for this one? Oc1c(Br)cc(Br)cc1Oc1c(O)c(Br)c(Br)c(Br)c1Br -0.39

So what's the measured log10 of IC50 for this one? O=C1N/C=C/c2ccc(c(Br)c2)Oc2cc(cc(Br)c2O)CCNC(=O)/C(=N/O)Cc2ccc(c(Br)c2)Oc2cc(cc(Br)c2O)C/C1=N\O [BASTADIN 7] 0.36

So what's the measured log10 of IC50 for this one? Oc1cc(Br)c(Br)c2c1Oc1cc(Br)cc(Br)c1O2 [SPONGIADIOXIN A] 1.70

So what's the measured log10 of IC50 for this one? COc1cc(Br)cc(Br)c1Oc1cc(Br)cc(Br)c1O 1.08

So what's the measured log10 of IC50 for this one? Oc1c(Br)cc(Br)cc1Oc1c(Br)cc(Br)c(Br)c1O 0.79

====

Hi there, I'd appreciate the recorded pIC50 for every entry that follows.
- Protocol: Inhibitory effect on soybean 15-lipoxygenase
- Set-up: species or system Glycine max
pIC50: −log10 of the molar value.

So what's the measured pIC50 for this one? Oc1cccc(Br)c1 < 4.00

So what's the measured pIC50 for this one? O=C(N/C=C/c1ccc(O)c(Br)c1)/C(Cc1cc(Br)c(O)c(Oc2c(Br)cc(C/C(=N\O)C(=O)NCCc3ccc(O)c(Br)c3)cc2Br)c1)=N/O 4.23

So what's the measured pIC50 for this one? COc1cc(Br)cc(Br)c1Oc1cc(Br)cc(Br)c1O < 4.00

So what's the measured pIC50 for this one? Oc1c(Br)cccc1Br < 4.00

So what's the measured pIC50 for this one? OCc1ccc(Br)cc1 < 4.00

So what's the measured pIC50 for this one? CC(Cc1ccc(O)c(O)c1)[C@H](C)Cc1ccc(O)c(O)c1 (stereo not given in full) 6.74

So what's the measured pIC50 for this one? Oc1ccc(Br)cc1Br < 4.00

So what's the measured pIC50 for this one? Oc1ccccc1Br < 4.00

So what's the measured pIC50 for this one? Oc1c(Br)cc(Br)cc1Oc1c(O)c(Br)c(Br)c(Br)c1Br < 4.00

So what's the measured pIC50 for this one? Oc1cc(Br)c(Br)c2c1Oc1cc(Br)cc(Br)c1O2 < 4.00

So what's the measured pIC50 for this one? Oc1ccc(Br)cc1 4.32

So what's the measured pIC50 for this one? CC(C)(c1cc(Br)c(O)c(Br)c1)c1cc(Br)c(O)c(Br)c1 < 4.00

So what's the measured pIC50 for this one? Oc1c(Br)cc(Br)cc1Oc1c(Br)cc(Br)c(Br)c1O < 4.00

So what's the measured pIC50 for this one? Oc1c(Br)cc(Br)c(Br)c1Oc1ccc(Br)cc1Br 5.05

So what's the measured pIC50 for this one? O=C1N/C=C/c2ccc(c(Br)c2)Oc2cc(cc(Br)c2O)CCNC(=O)/C(=N/O)Cc2ccc(c(Br)c2)Oc2cc(cc(Br)c2O)C/C1=N\O 4.57

So what's the measured pIC50 for this one? Oc1cc(Br)cc2c1Oc1cc(Br)cc(Br)c1O2 < 4.00

So what's the measured pIC50 for this one? CCOc1ccc(Br)cc1 < 4.00

So what's the measured pIC50 for this one? CC(C)(c1ccc(O)c(Br)c1)c1cc(Br)c(O)c(Br)c1 < 4.00

So what's the measured pIC50 for this one? Oc1ccc(Br)cc1Oc1c(O)ccc(Br)c1Br < 4.00

So what's the measured pIC50 for this one? Oc1c(Br)c(Br)c(Br)c(Br)c1Oc1ccc(Br)cc1Br 5.15

====

Hi there, I'd appreciate the recorded IC50 for every entry that follows.
Report as a plain number; the unit µM is understood.

Lookup: IC50 / Polyunsaturated fatty acid lipoxygenase ALOX15 (Homo sapiens) / COc1cc(Br)cc(Br)c1Oc1cc(Br)cc(Br)c1O 10

Lookup: IC50 / Polyunsaturated fatty acid lipoxygenase ALOX15 (Homo sapiens) / Oc1c(Br)cc(Br)cc1Oc1c(Br)cc(Br)c(Br)c1O 2.2

Lookup: IC50 / Polyunsaturated fatty acid lipoxygenase ALOX15 (Homo sapiens) / CC(C)(c1cc(Br)c(O)c(Br)c1)c1cc(Br)c(O)c(Br)c1 4

Lookup: IC50 / Polyunsaturated fatty acid lipoxygenase ALOX15 (Homo sapiens) / Oc1c(Br)cc(Br)c(Br)c1Oc1ccc(Br)cc1Br 5

Lookup: IC50 / Polyunsaturated fatty acid lipoxygenase ALOX15 (Homo sapiens) / Oc1c(Br)c(Br)c(Br)c(Br)c1Oc1ccc(Br)cc1Br 1.8

Lookup: IC50 / Polyunsaturated fatty acid lipoxygenase ALOX15 (Homo sapiens) / Oc1ccc(Br)cc1 55

Lookup: IC50 / Polyunsaturated fatty acid lipoxygenase ALOX15 (Homo sapiens) / Oc1c(Br)cc(Br)cc1Oc1c(O)c(Br)c(Br)c(Br)c1Br 0.79

Lookup: IC50 / Polyunsaturated fatty acid lipoxygenase ALOX15 (Homo sapiens) / Oc1cc(Br)cc2c1Oc1cc(Br)cc(Br)c1O2 0.8

Lookup: IC50 / Polyunsaturated fatty acid lipoxygenase ALOX15 (Homo sapiens) / CC(C)(c1ccc(O)c(Br)c1)c1cc(Br)c(O)c(Br)c1 5

Lookup: IC50 / Polyunsaturated fatty acid lipoxygenase ALOX15 (Homo sapiens) / O=C1N/C=C/c2ccc(c(Br)c2)Oc2cc(cc(Br)c2O)CCNC(=O)/C(=N/O)Cc2ccc(c(Br)c2)Oc2cc(cc(Br)c2O)C/C1=N\O 4

====

Hi there, I'd appreciate the recorded IC50 for every entry that follows.

Lookup: IC50 / Polyunsaturated fatty acid lipoxygenase ALOX15 (Homo sapiens) / Oc1c(Br)cccc1Br > 100 µM

Lookup: IC50 / Polyunsaturated fatty acid lipoxygenase ALOX15 (Homo sapiens) / OCc1ccc(Br)cc1 > 100 µM

Lookup: IC50 / Polyunsaturated fatty acid lipoxygenase ALOX15 (Homo sapiens) / Oc1ccccc1Br > 100 µM
